The measurements presented in this section are drawn from the supplement of paper PMC5998384.

system: HeLa Kyoto; test: thermal stability score vs G1/S (z-score of summed log2 fold changes over temperatures); higher = more thermally stable than in G1/S; settings: cell cycle stage: early G1 (4.5 h after nocodazole release);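 further: synchronized HeLa Kyoto cells, proteins quantified by TMT10plex mass spectrometry, three biological replicates, mitosis taken 0.5 h after nocodazole release, G1/S directly after double thymidine block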
PROPERTY_NAME: thermal stability score
Could you keep your reply to the number by itself?

- SEQUENCE_INPUT: "MAAARHSTLDFMLGAKADGETILKGLQSIFQEQGMAESVHTWQDHGYLATYTNKNGSFANLRIYPHGLVLLDLQSYDGDAQGKEEIDSILNKVEERMKELSQDSTGRVKRLPPIVRGGAIDRYWPTADGRLVEYDIDEVVYDEDSPYQNIKILHSKQFGNILILSGDVNLAESDLAYTRAIMGSGKEDYTGKDVLILGGGDGGILCEIVKLKPKMVTMVEIDQMVIDGCKKYMRKTCGDVLDNLKGDCYQVLIEDCIPVLKRYAKEGREFDYVINDLTAVPISTSPEEDSTWEFLRLILDLSMKVLKQDGKYFTQGNCVNLTEALSLYEEQLGRLYCPVEFSKEIVCVPSYLELWVFYTVWKKAKP [SMS]"
  PROPERTY_NAME: "thermal stability score"
  NUMERIC_READOUT: -2.98
- SEQUENCE_INPUT: "MAAPAPGAGAASGGAGCSGGGAGAGAGSGSGAAGAGGRLPSRVLELVFSYLELSELRSCALVCKHWYRCLHGDENSEVWRSLCARSLAEEALRTDILCNLPSYKAKIRAFQHAFSTNDCSRNVYIKKNGFTLHRNPIAQSTDGARTKIGFSEGRHAWEVWWEGPLGTVAVIGIATKRAPMQCQGYVALLGSDDQSWGWNLVDNNLLHNGEVNGSFPQCNNAPKYQIGERIRVILDMEDKTLAFERGYEFLGVAFRGLPKVCLYPAVSAVYGNTEVTLVYLGKPLDG [FBXO45]"
  PROPERTY_NAME: "thermal stability score"
  NUMERIC_READOUT: -0.0815
- SEQUENCE_INPUT: "MPRDNMASLIQRIARQACLTFRGSGGGRGASDRDAASGPEAPMQPGFPENLSKLKSLLTQLRAEDLNIAPRKATLQPLPPNLPPVTYMHIYETDGFSLGVFLLKSGTSIPLHDHPGMHGMLKVLYGTVRISCMDKLDAGGGQRPRALPPEQQFEPPLQPREREAVRPGVLRSRAEYTEASGPCILTPHRDNLHQIDAVEGPAAFLDILAPPYDPDDGRDCHYYRVLEPVRPKEASSSACDLPREVWLLETPQADDFWCEGEPYPGPKVFP [ADO]"
  PROPERTY_NAME: "thermal stability score"
  NUMERIC_READOUT: -2.72
- SEQUENCE_INPUT: "MDRFVWTSGLLEINETLVIQQRGVRIYDGEEKIKFDAGTLLLSTHRLIWRDQKNHECCMAILLSQIVFIEEQAAGIGKSAKIVVHLHPAPPNKEPGPFQSSKNSYIKLSFKEHGQIEFYRRLSEEMTQRRWENMPVSQSLQTNRGPQPGRIRAVGIVGIERKLEEKRKETDKNISEAFEDLSKLMIKAKEMVELSKSIANKIKDKQGDITEDETIRFKSYLLSMGIANPVTRETYGSGTQYHMQLAKQLAGILQVPLEERGGIMSLTEVYCLVNRARGMELLSPEDLVNACKMLEALKLPLRLRVFDSGVMVIELQSHKEEEMVASALETVSEKGSLTSEEFAKLVGMSVLLAKERLLLAEKMGHLCRDDSVEGLRFYPNLFMTQS [VPS36]"
  PROPERTY_NAME: "thermal stability score"
  NUMERIC_READOUT: 1.41
- SEQUENCE_INPUT: "MVAGSDAGRALGVLSVVCLLHCFGFISCFSQQIYGVVYGNVTFHVPSNVPLKEVLWKKQKDKVAELENSEFRAFSSFKNRVYLDTVSGSLTIYNLTSSDEDEYEMESPNITDTMKFFLYVLESLPSPTLTCALTNGSIEVQCMIPEHYNSHRGLIMYSWDCPMEQCKRNSTSIYFKMENDLPQKIQCTLSNPLFNTTSSIILTTCIPSSGHSRHRYALIPIPLAVITTCIVLYMNGILKCDRKPDRTNSN [CD58]"
  PROPERTY_NAME: "thermal stability score"
  NUMERIC_READOUT: -0.387
- SEQUENCE_INPUT: "MSFLKSFPPPGPAEGLLRQQPDTEAVLNGKGLGTGTLYIAESRLSWLDGSGLGFSLEYPTISLHALSRDRSDCLGEHLYVMVNAKFEEESKEPVADEEEEDSDDDVEPITEFRFVPSDKSALEAMFTAMCECQALHPDPEDEDSDDYDGEEYDVEAHEQGQGDIPTFYTYEEGLSHLTAEGQATLERLEGMLSQSVSSQYNMAGVRTEDSIRDYEDGMEVDTTPTVAGQFEDADVDH [CLNS1A]"
  PROPERTY_NAME: "thermal stability score"
  NUMERIC_READOUT: -0.798
- SEQUENCE_INPUT: "MASGQGPGPPRQECGEPALPSASEEQVAQDTEEVFRSYVFYRHQQEQEAEGVAAPADPEMVTLPLQPSSTMGQVGRQLAIIGDDINRRYDSEFQTMLQHLQPTAENAYEYFTKIATSLFESGINWGRVVALLGFGYRLALHVYQHGLTGFLGQVTRFVVDFMLHHCIARWIAQRGGWVAALNLGNGPILNVLVVLGVVLLGQFVVRRFFKS [BAK1]"
  PROPERTY_NAME: "thermal stability score"
  NUMERIC_READOUT: -0.0676
- SEQUENCE_INPUT: "MALGLKCFRMVHPTFRNYLAASIRPVSEVTLKTVHERQHGHRQYMAYSAVPVRHFATKKAKAKGKGQSQTRVNINAALVEDIINLEEVNEEMKSVIEALKDNFNKTLNIRTSPGSLDKIAVVTADGKLALNQISQISMKSPQLILVNMASFPECTAAAIKAIRESGMNLNPEVEGTLIRVPIPQVTREHREMLVKLAKQNTNKAKDSLRKVRTNSMNKLKKSKDTVSEDTIRLIEKQISQMADDTVAELDRHLAVKTKELLG [MRRF]"
  PROPERTY_NAME: "thermal stability score"
  NUMERIC_READOUT: -2.43

Can you look up the measured thermal stability score of MALLLCFVLLCGVVDFARSLSITTPEEMIEKAKGETAYLPCKFTLSPEDQGPLDIEWLISPADNQKVDQVIILYSGDKIYDDYYPDLKGRVHFTSNDLKSGDASINVTNLQLSDIGTYQCKVKKAPGVANKKIHLVVLVKPSGARCYVDGSEEIGSDFKIKCEPKEGSLPLQYEWQKLSDSQKMPTSWLAEMTSSVISVKNASSEYSGTYSCTVRNRVGSDQCLLRLNVVPPSNKAGLIAGAIIGTLLALALIGLIIFCCRKKRREEKYEKEVHHDIREDVPPPKSRTSTARSYIGSNHSSLGSMSPSNMEGYSKTQYNQVPSEDFERTPQSPTLPPAKVAAPNLSRMGAIPVMIPAQSKDGSIV [CXADR] for me?
-1.74

# get_value(readout='thermal stability score', item= MSASLVRATVRAVSKRKLQPTRAALTLTPSAVNKIKQLLKDKPEHVGVKVGVRTRGCNGLSYTLEYTKTKGDSDEEVIQDGVRVFIEKKAQLTLLGTEMDYVEDKLSSEFVFNNPNIKGTCGCGESFNI [ISCA1] )
-0.782

Param item = MGLTISSLFSRLFGKKQMRILMVGLDAAGKTTILYKLKLGEIVTTIPTIGFNVETVEYKNICFTVWDVGGQDRIRPLWKHYFQNTQGLIFVVDSNDRERIQEVADELQKMLLVDELRDAVLLLFANKQDLPNAMAISEMTDKLGLQSLRNRTWYVQATCATQGTGLYEGLDWLSNELSKR [ARF4] ; retrieve measured thermal stability score.
4.99
